Data credit: PubChem BioAssay (EPA / NIEHS)

- Read-out: Cytochrome P450 3A4 (Homo sapiens)
- Experimental protocol: CLD_CYP3A4_6hr: CellzDirect (CLD) Gene Expression Assay for xenobiotic metabolism (CYP3A4) at 6 hours (AID 2283680)
Records with an inconclusive call do not appear. Calls of active or inactive are those of the source. Rule for the calls: active = hit-call score of the fitted dose curve at least 0.9, where 1 is the maximum; inconclusive = response in the unintended direction; inactive = score below 0.9.
Value type: AC50

1. COC(=O)N(OC)c1ccccc1COc1ccn(-c2ccc(Cl)cc2)n1	inactive
2. CC1=C(C(=O)Nc2ccccc2)SCCO1	inactive
3. C=CC1(C)OC(=O)N(c2cc(Cl)cc(Cl)c2)C1=O (stereo not drawn)	inactive
4. CNC(=O)ON=CC(C)(C)SC	inactive
5. Cc1c(F)c(F)c(COC(=O)C2C(/C=C(\Cl)C(F)(F)F)C2(C)C)c(F)c1F (stereo not drawn)	inactive
6. COP(=S)(OC)Oc1nc(Cl)c(Cl)cc1Cl	inactive
7. OC(c1ccc(Cl)cc1)(c1cncnc1)c1ccccc1Cl (stereo not drawn)	inactive
8. CCCCNC(=O)OCC#CI	1.89 µM (active)
9. COc1nc(NC(C)C)nc(NC(C)C)n1	inactive
10. CCCN(CCC)c1c([N+](=O)[O-])cc(S(N)(=O)=O)cc1[N+](=O)[O-]	inactive
11. COc1nc(C)nc(NC(=O)NS(=O)(=O)c2ccccc2CCC(F)(F)F)n1	inactive
12. CNC(=S)S	inactive
13. Cc1ccc(-c2c(Cl)nc(C#N)n2S(=O)(=O)N(C)C)cc1	1.89 µM (active)
14. COc1cnc(OC)n2nc(NS(=O)(=O)c3c(OCC(F)F)cccc3C(F)(F)F)nc12	8.34 µM (active)
15. COP(N)(=O)SC (stereo not drawn)	inactive
16. COC(=O)C(C)Oc1ccc(Oc2ccc(Cl)cc2Cl)cc1 (stereo not drawn)	inactive
17. COC(=O)C=C(C)OP(=O)(OC)OC	inactive
18. N#Cc1nn(-c2c(Cl)cc(C(F)(F)F)cc2Cl)c(N)c1S(=O)C(F)(F)F (stereo not drawn)	inactive

###

- Read-out: MYC, MYC (gene 4609)
- Experimental protocol: LTEA_HepaRG_MYC: Life Technologies and Expression Analysis (LTEA) Assay for MYC using HepaRG (AID 2283518)
- Condition summary: mRNA level, 48 h; actives raise or lower the signal
Activity calls are given as the source filed them. Rule for the calls: active = hit-call score of the fitted dose curve at least 0.9, where 1 is the maximum; inactive = score below 0.9.
Possible outcomes: yes = active, no = inactive

1. CCCCNC(=O)OCC#CI	no
2. COc1nc(NC(C)C)nc(NC(C)C)n1	no
3. N#Cc1cc(Br)c(O)c(Br)c1	no
4. CC1COC(Cn2cncn2)(c2ccc(Oc3ccc(Cl)cc3)cc2Cl)O1 (stereo not drawn)	yes
5. CCOc1cc(Oc2ccc(C(F)(F)F)cc2Cl)ccc1[N+](=O)[O-]	yes
6. CCCCOC(=O)c1ccccc1C(=O)OCCCC	no
7. Cc1ccc(-c2c(Cl)nc(C#N)n2S(=O)(=O)N(C)C)cc1	yes
8. CCOC(=O)CC(SP(=S)(OC)OC)C(=O)OCC (stereo not drawn)	no
9. CS/C(C)=N/OC(=O)N(C)SN(C)C(=O)O/N=C(\C)SC	no
10. O=C(O)COc1nc(Cl)c(Cl)cc1Cl	no
11. CCCC1COC(Cn2cncn2)(c2ccc(Cl)cc2Cl)O1 (stereo not drawn)	yes
12. CNC(=S)S	no
13. CC1=C(C(=O)Nc2ccccc2)SCCO1	no
